Reported normalized growth values for the following molecules.
methodDescription: chemical genetic growth profiling, strain panel (AID 1159580);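 further: tested at 20 µM; growth read once vehicle control cultures reached saturation at 30 °C; 1 = growth at the plate median or of vehicle wells; lower values mean less growth of the strain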
measurementConditions: S. cerevisiae deletion strains, growth OD, locus YNL197C, strain WHI3, active compounds read low
In all, about 5,500 compounds went through this assay and about 2,000 (36%) were called active. Inconclusive results (about 18%) are left out. The list shows a part of the results.

- molecule: "CN1CCN(CC/C=C2/c3ccccc3Sc3ccc(S(=O)(=O)N(C)C)cc32)CC1"
  normalized growth: 1.02
- molecule: "OCCN1CCN(CC/C=C2/c3ccccc3Sc3ccc(C(F)(F)F)cc32)CC1"
  normalized growth: 1.02
- molecule: "O=C(Cc1ccc(Cl)c(Cl)c1)OCCN1CCCC1"
  normalized growth: 1
- molecule: "Cc1ccc(=O)n(-c2ccccc2)c1"
  normalized growth: 1.01
- molecule: "O=C(O)c1cc(=O)c2c(Cl)cc(Cl)cc2[nH]1"
  normalized growth: 1.01
- molecule: "C[C@]12CCC(=O)C=C1CC[C@@H]1[C@@H]2[C@@H](O)C[C@@]2(C)[C@H]1CC[C@]2(O)C(=O)COC(=O)CCC(=O)O"
  normalized growth: 1.01
- molecule: "CN1C(=O)CCS(=O)(=O)C1c1ccc(Cl)cc1 (centres undefined)"
  normalized growth: 1
- molecule: "CCc1c(C(=O)OC)ncc2[nH]c3cc(OC)c(OC)cc3c12"
  normalized growth: 0.992
- molecule: "Nc1ncnc2c1ncn2[C@@H]1O[C@H](C(=O)NC2CC2)[C@H](O)C1O (some centres undefined)"
  normalized growth: 0.986
- molecule: "Cc1cc(C(C)(C)C)c(O)c(C)c1CC1=NCCN1"
  normalized growth: 1.01
- molecule: "CN1CCN(CC(=O)N2c3ccccc3C(=O)Nc3cccnc32)CC1"
  normalized growth: 0.982
- molecule: "Nc1ncnc2c1nc(Br)n2C1OC2COP(=O)(O)O[C@@H]2C1O (some centres undefined)"
  normalized growth: 1.02
- molecule: "CCN(CC)C(=O)N[C@@H]1C=C2c3cccc4[nH]cc(c34)C[C@H]2N(C)C1"
  normalized growth: 1
- molecule: "CC(=O)Oc1ccccc1C(=O)O"
  normalized growth: 0.995
- molecule: "CNC(=O)[C@H]1O[C@@H](n2cnc3c(NCc4ccc(N)cc4)ncnc32)C(O)[C@H]1O (some centres undefined)"
  normalized growth: 1.01
- molecule: "O=C(O)CC1CCCc2ccccc2C1O (centres undefined)"
  normalized growth: 1.01
- molecule: "Cc1cc(C(C)(C)C)cc(C)c1CC1=NCCN1"
  normalized growth: 1.01
- molecule: "C=C(C)C1Cc2c(ccc3c2OC2COc4cc(OC)c(OC)cc4C2C3=O)O1 (centres undefined)"
  normalized growth: 0.979
- molecule: "NCC(O)c1cc(O)c(O)cc1F (centres undefined)"
  normalized growth: 0.994

---

methodDescription: chemical genetic growth profiling, strain panel (AID 1159580);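 further: tested at 20 µM; growth read once vehicle control cultures reached saturation at 30 °C; 1 = growth at the plate median or of vehicle wells; lower values mean less growth of the strain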
measurementConditions: S. cerevisiae deletion strains, growth OD, locus YPL078C, strain atp4, active compounds read low
The whole screen tested about 5,500 compounds, of which about 2,000 (36%) were called active. Not shown: some 18% with an inconclusive outcome. This is one part of the list. Where a SMILES comes first, the peptide text is derived from it. Bridges are numbered along the chain shown (N, C = ends). [ ]: non-standard residue; d: D form. The star is where a group is joined. Octanoyl(6-Me) = CCC(C)CCCCC(=O)*; Dab = NCC[CH](N)C(=O)O
Reported normalized growth values for the following molecules.
measurementType: normalized growth

- molecule: "NC[C@H]1O[C@H](O[C@H]2C(O[C@@H]3O[C@H](CO)[C@@H](O)[C@H]3O)[C@@H](O)[C@H](N)C[C@@H]2N)[C@H](N)[C@@H](O)[C@@H]1O (stereo partly specified)"
  endpointValue: 1.01
- molecule: "CC(=O)[C@@]1(O)CCC2C3CCC4=CC(=O)CC[C@]4(C)C3CC[C@@]21C (stereo partly specified)"
  endpointValue: 0.997
- molecule: "O=C(CCBr)N1CCN(C(=O)CCBr)CC1"
  endpointValue: 1.01
- molecule: "CC(=O)OCC(=O)[C@@]12OC3(CCCC3)O[C@@H]1CC1C3CCC4=CC(=O)C=C[C@]4(C)[C@@]3(F)[C@@H](O)C[C@@]12C (stereo partly specified)"
  endpointValue: 1.01
- molecule: "COc1cc2c(cc1O)CCNC2C (stereo unspecified)"
  endpointValue: 0.989
- molecule: "COc1cc(O)cc(OC)c1OC"
  endpointValue: 0.988
- molecule: "CNS(=O)(=O)c1ccc(NC(=O)c2ccccc2C(=O)O)cc1"
  endpointValue: 1.02
- molecule: "O=c1[nH]cnc2c1ncn2C1O[C@H](CO)[C@@H](O)[C@H]1O (stereo partly specified)"
  endpointValue: 1
- molecule: "CC(=O)NS(=O)(=O)c1ccc(NC(=O)c2ccccc2C(=O)O)cc1"
  endpointValue: 1.02
- molecule: "CCC(C)CCCCC(=O)NC(CCN)C(=O)NC(C(=O)NC(CCN)C(=O)NC1CCNC(=O)C(C(C)O)NC(=O)C(CCN)NC(=O)C(CCN)NC(=O)C(CC(C)C)NC(=O)C(Cc2ccccc2)NC(=O)C(CCN)NC1=O)C(C)O (stereo unspecified) ({Octanoyl(6-Me)}-[Dab]T[Dab][Dab][Dab]FL[Dab][Dab]T; lactam 4-C; configuration not given here)"
  endpointValue: 0.972
- molecule: "CC[C@@H](CO)NC(=O)[C@@H]1C=C2c3cccc4[nH]cc(c34)C[C@H]2N(C)C1"
  endpointValue: 0.98
